So I've got a bunch of compounds here, and I need their herbicidal effect rating values.
System: ORYSAT Rice, Tebonnet
Experiment: Rice tolerance, flooded paddy (Table IV)
Format: in vivo, Oryza sativa
Set-up: scale not given here
Details: 0.2500 kg/ha, crop tolerance
Respond numerically, and do not add a unit to the figure.

Result for CC(C)Oc1cccc(-c2nsc3ccc(-n4c(=O)cc(C(F)(F)F)n(C)c4=O)cc23)c1 , tested on ORYSAT Rice, Tebonnet, herbicidal effect rating: 4.0

Result for CC(C)S(=O)(=O)NC(=O)c1nsc2ccc(-n3c(=O)cc(C(F)(F)F)n(C)c3=O)cc12 , tested on ORYSAT Rice, Tebonnet, herbicidal effect rating: 6.0

Result for COc1c(-c2nsc3ccc(-n4c(=O)cc(C(F)(F)F)n(C)c4=O)cc23)ccc(C)c1C , tested on ORYSAT Rice, Tebonnet, herbicidal effect rating: 7.0

Result for C#CCOC(=O)C(C)(C)Oc1ccc(C)cc1-c1nsc2ccc(-n3c(=O)cc(C(F)(F)F)n(C)c3=O)cc12 , tested on ORYSAT Rice, Tebonnet, herbicidal effect rating: 3.0

Result for CCOC(=O)COc1ccc(C)cc1-c1nsc2ccc(-n3c(=O)cc(C(F)(F)F)n(C)c3=O)cc12 , tested on ORYSAT Rice, Tebonnet, herbicidal effect rating: 0.0

====

Test system: CYPSE Flatsedge
Assay: Preemergence weed control, flooded paddy (Table III)
Assay type: in vivo, Cyperus serotinus
Conditions: 0.1250 kg/ha
Procedure: Preemergence herbicidal activity under flooded paddy conditions is determined as follows: plant seeds or propagating organs are planted in the top 0.5 cm of silt loam soil in 32 oz. plastic containers with a diameter of 10.5 cm and no drainage holes. Water is added to these containers and maintained at 1.5 to 3 cm above the soil surface for the duration of the experiment. […] The compounds evaluated are reported by compound number given in Example 185.
Classify by measured herbicidal effect rating: Y if it is equal to or exceeds 7, N if it is smaller.

Task item: Hi team, for COC(=O)C(C)Oc1ccc(C)cc1-c1nsc2ccc(-n3c(=O)cc(C(F)(F)F)n(C)c3=O)cc12 (stereo not shown) , is the recorded herbicidal effect rating at or above 7?
Reply: N

Task item: Hi team, for COC(=O)COc1cc(C)ccc1-c1nsc2ccc(-n3c(=O)cc(C(F)(F)F)n(C)c3=O)cc12 , is the recorded herbicidal effect rating at or above 7?
Reply: Y

Task item: Hi team, for COc1ccc(C)cc1-c1nsc2ccc(-n3c(=O)cc(C(F)(F)F)n(C)c3=O)cc12 , is the recorded herbicidal effect rating at or above 7?
Reply: N

Task item: Hi team, for COc1cc(C)ccc1-c1nsc2ccc(-n3c(=O)cc(C(F)(F)F)n(C)c3=O)cc12 , is the recorded herbicidal effect rating at or above 7?
Reply: Y

Task item: Hi team, for COC(=O)COc1ccc(C)cc1-c1nsc2ccc(-n3c(=O)cc(C(F)(F)F)n(C)c3=O)cc12 , is the recorded herbicidal effect rating at or above 7?
Reply: N

Task item: Hi team, for Cn1c(C(F)(F)F)cc(=O)n(-c2ccc3snc(-c4ccccc4)c3c2)c1=O , is the recorded herbicidal effect rating at or above 7?
Reply: Y

====

Test system: Soybean, Glycine max
Assay: Preemergence herbicidal evaluation, GLXMA
Assay type: in vivo, (L.) Merr.
Conditions: 0.2500 kg/ha
readoutName: herbicide rating (0-9)
Respond numerically, and do not add a unit to the figure.

Result for Cn1c(C(F)(F)F)cc(=O)n(-c2ccc3snc(-c4ccccc4)c3c2)c1=O , tested on Soybean, Glycine max, herbicide rating (0-9): 7.0

Result for Cc1nsc2ccc(-n3c(=O)cc(C(F)(F)F)n(C)c3=O)cc12 , tested on Soybean, Glycine max, herbicide rating (0-9): 9.0

Result for CCc1ccc(-c2nsc3ccc(-n4c(=O)cc(C(F)(F)F)n(C)c4=O)cc23)cc1 , tested on Soybean, Glycine max, herbicide rating (0-9): 4.0

Result for COC(=O)C(C)Oc1ccc(C)cc1-c1nsc2ccc(-n3c(=O)cc(C(F)(F)F)n(C)c3=O)cc12 (stereo not shown) , tested on Soybean, Glycine max, herbicide rating (0-9): 4.0
